molecular target: URAT1 (Homo sapiens (Human), UniProt Q96S37); test: URAT1-model assay, 14C-uric acid transport in HEK293/URAT1-model cells; type: cell-based; conditions: 14C-uric acid 125 μM, 10 minutes at room temperature, read-out: URAT1 EC50 Activity Ranking
Sequence (Q96S37 whole entry, species assumed): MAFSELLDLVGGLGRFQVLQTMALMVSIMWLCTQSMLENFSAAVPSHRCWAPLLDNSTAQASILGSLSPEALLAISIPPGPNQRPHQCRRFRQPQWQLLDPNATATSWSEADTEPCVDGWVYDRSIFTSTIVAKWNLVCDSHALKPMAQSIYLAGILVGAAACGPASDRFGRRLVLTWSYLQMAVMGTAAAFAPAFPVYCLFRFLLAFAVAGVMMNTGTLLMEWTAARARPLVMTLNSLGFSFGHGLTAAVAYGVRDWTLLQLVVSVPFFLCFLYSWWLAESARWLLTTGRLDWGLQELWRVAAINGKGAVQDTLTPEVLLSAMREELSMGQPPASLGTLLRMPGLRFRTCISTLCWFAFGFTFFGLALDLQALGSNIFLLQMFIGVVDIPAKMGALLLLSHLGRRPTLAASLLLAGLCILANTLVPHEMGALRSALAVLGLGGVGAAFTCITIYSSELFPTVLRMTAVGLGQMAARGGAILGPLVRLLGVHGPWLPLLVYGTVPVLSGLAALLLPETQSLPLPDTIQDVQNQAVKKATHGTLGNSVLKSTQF
ASSAY_ENDPOINT: EC50

Here are 8 molecules together with their reported answers.
[ask] Query EC50 for Cc1ccc(-c2cnccc2SC(C)(C)C(=O)O)cc1 [Example 2CCC]
[reply] 50 to 500 nM

[ask] Query EC50 for N#Cc1ccc(-c2cncnc2SCC(=O)O)c2ccccc12 [Example 6A]
[reply] 500 to 10000 nM

[ask] Query EC50 for N#Cc1ccc(-c2ncncc2SCC(=O)O)c2ccccc12 [Example 7A]
[reply] 500 to 10000 nM

[ask] Query EC50 for CC(C)(Sc1ccncc1-c1ccc(Cl)c(Cl)c1)C(=O)O [Example 2S]
[reply] 50 to 500 nM

[ask] Query EC50 for CC(C)(Sc1ccncc1-c1ccc(C(N)=O)cc1F)C(=O)O [Example 2JJJ]
[reply] 50 to 500 nM

[ask] Query EC50 for CC(C)(Sc1cnccc1-c1ccc(C#N)cc1)C(=O)O [Example 3A]
[reply] 500 to 10000 nM

[ask] Query EC50 for CC(C)(Sc1ccncc1-c1ccc(S(N)(=O)=O)cc1)C(=O)O [Example 2CC]
[reply] 50 to 500 nM

[ask] Query EC50 for CSc1ccc(-c2cnccc2SC(C)(C)C(=O)O)cc1 [Example 2Q]
[reply] 50 to 500 nM

Next:
[ask] Query EC50 for CC(C)(Sc1ccncc1-c1ccc(C(N)=O)cc1)C(=O)O [Example 2KK]
[reply] 50 to 500 nM
